molecular target: ATP7B MBD3-4, fluorescently labelled (NT-647-NHS); experiment: MST; with Cu(I) 40 uM; labelled protein 50 nM, peptide titrated; 25 mM Na2HPO4 pH 8, 150 mM NaCl, 0.05% Tween 20; 25 C; Monolith NT.115
Sequence (P35670 whole entry): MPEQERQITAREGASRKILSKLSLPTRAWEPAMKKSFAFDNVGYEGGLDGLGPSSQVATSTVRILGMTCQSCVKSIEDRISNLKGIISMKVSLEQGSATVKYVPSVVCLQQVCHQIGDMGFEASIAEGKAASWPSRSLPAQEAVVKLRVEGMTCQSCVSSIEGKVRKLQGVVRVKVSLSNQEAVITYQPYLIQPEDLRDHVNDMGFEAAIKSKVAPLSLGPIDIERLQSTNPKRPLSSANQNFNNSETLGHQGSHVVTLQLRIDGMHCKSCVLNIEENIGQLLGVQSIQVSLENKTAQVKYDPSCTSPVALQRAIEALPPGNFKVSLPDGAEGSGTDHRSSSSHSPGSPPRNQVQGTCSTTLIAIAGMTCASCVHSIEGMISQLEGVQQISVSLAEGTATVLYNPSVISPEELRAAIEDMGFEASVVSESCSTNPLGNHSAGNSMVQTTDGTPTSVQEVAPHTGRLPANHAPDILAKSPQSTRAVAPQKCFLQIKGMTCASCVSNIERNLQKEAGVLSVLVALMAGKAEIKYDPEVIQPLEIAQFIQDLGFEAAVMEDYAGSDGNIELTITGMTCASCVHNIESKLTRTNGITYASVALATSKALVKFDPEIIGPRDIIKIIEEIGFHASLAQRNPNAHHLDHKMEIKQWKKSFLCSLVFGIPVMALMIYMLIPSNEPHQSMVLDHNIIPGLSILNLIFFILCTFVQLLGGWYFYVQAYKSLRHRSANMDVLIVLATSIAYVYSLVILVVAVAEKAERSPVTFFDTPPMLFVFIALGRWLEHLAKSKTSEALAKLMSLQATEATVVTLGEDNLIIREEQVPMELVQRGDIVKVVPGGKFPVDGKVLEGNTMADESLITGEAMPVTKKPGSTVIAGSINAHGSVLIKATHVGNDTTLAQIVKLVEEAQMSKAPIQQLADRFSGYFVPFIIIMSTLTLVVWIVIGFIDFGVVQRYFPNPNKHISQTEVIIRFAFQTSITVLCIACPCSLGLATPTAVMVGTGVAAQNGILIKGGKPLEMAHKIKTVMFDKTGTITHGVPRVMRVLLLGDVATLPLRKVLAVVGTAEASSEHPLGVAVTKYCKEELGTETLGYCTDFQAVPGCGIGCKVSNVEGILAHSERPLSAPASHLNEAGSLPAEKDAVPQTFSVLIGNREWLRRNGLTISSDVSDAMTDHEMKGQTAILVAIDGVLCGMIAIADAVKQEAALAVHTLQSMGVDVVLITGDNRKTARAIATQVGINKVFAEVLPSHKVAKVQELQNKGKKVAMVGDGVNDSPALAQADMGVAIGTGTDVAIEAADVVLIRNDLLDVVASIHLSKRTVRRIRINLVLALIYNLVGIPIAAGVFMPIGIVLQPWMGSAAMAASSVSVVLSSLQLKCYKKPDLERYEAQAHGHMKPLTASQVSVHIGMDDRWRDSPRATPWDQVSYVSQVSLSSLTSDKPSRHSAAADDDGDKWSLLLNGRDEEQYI
pKd: −log10 of the molar value.
In this section we review reported pKd values for a set of binders.
OUTCOME MEASURE: pKd

- BINDER: "KERTSR (Made on rink-amide resin, which would give a C-terminal amide; also called KERTSR; source: synthetic peptide (Fmoc, rink-amide resin, reverse phase HPLC; 99.4% purity)) [KER peptide]"
  OUTCOME MEASURE: "pKd"
  VALUE REPORTED: 4.44
- BINDER: "SMDMSIE (Made on rink-amide resin, which would give a C-terminal amide; also called SMDMSIE; source: synthetic peptide (Fmoc, rink-amide resin, reverse phase HPLC; 95.1% purity)) [SMD peptide]"
  OUTCOME MEASURE: "pKd"
  VALUE REPORTED: 4.35
